FYI, the data here is from patent US20120189541A1.

Target: T1, Recombinant Human IL-1α (human, UniProt P01583 113-271)
T1 construct: Bought recombinant protein; Biotinylated in the capture ELISA; also called hIL-1α; IL-1 alpha
T1 sequence (looked up): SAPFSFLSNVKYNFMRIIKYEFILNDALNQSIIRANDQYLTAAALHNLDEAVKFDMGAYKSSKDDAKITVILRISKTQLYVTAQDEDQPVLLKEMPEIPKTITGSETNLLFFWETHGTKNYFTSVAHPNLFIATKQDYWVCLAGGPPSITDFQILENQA
Assay: SPR (BIACORE), human antigen
Answer each item with its documented Kd.
Numbers only, in nM.

Please look at the items below and tell me Kd for each one, in order.
1. 3D12.8 (antibody, human IgG1, kappa, L234A L235A, V domains shown, Parent anti-IL-1α antibody; also called 3D12.8VH; 3D12.8VL) VH: EIQLVQSGSELKKPGASVKVSCKASGYTFTNYGMNWVRQAPGQDLERMAWINTYTGESTYADDFKGRFVFSLDTSVSTAYLQISSLKAEDTAVYFCARGIYYYGSSYAMDYWGQGTTVTVSS VL: DIQMTQSPSSLSASVGDRVTITCRASQDISNCLNWYQQKPGKTPKLLIYYTSRLHSGVPSRFSGSGSGTDYTFTISSLQPEDIATYFCQQGKTLPYAFGQGTKLEIKR
2. 3D12.10/15 (antibody, human IgG1, kappa, L234A L235A, V domains shown, Parent anti-IL-1α antibody; also called 3D12 10/15VH; 3D12 10/15VL) VH: EVQLVQSGAEVKKPGVSVKVSCKASGYTFTTYGMHWVRQAPGQGLEWMGWINTYTGESTYADDFQGRVTFTLDTSTSTAYMELSSLRSEDTAVYFCARGIYYYGSSYAMNYWGQGTTVTVSS VL: DIQMTQSPSSLSASVGDRVTITCRASQDISNMLNWYQQKPGKTPKLLIYYTSRLYPGVPSRFSGSGSGTDYTFTISSLQPEDIATYFCQQGKTLPYAFGQGTKLEIKR
3. 3D12.16 (antibody, human IgG1, kappa, L234A L235A, V domains shown, Parent anti-IL-1α antibody; also called 3D12.16VH; 3D12.16VL) VH: EIQLVQSGAEVKKPGASVKVSCKASGYTFTNYGMNWVRQAPGQDLERMAWINTYTGESTYADDFKGRFTFTLDTSTSTAYMELSSLRSEDTAVYFCARGIYYYGSSYAMDYWGQGTTVTVSS VL: DIQMTQSPSSLSASVGDRVTITCRASQDISNCLNWYQQKPGKTPKLLIYYTSRLHSGVPSRFSGSGSGTDYTFTISSLQPEDIATYFCQQGKTLPYAFGQGTKLEIKR

A.
[1.35, 0.115, 2.09]
